Just for reference, ChEMBL document CHEMBL3826953 is where these values come from.

Biological target: UniProt:Q13822
Experiment: Inhibition of recombinant human C-terminal His-tagged ATX expressed in HEK293E cells using lysophosphatidylcholine as substrate preincubated with enzyme followed by substrate addition measured after 1 hr by AmplexRed dye based fluorescence assay
Attribute Measured: IC50

Which IC50 value belongs to O=C(c1cc(-c2cnn[nH]2)ccn1)N1CCc2nc(NC3Cc4ccccc4C3)ncc2C1 ?
< 1.7 nM

----------
Molecular target: Autotaxin (Homo sapiens)
Experiment: Inhibition of recombinant human C-terminal V5/His6-tagged ATX expressed in HEK293 cells assessed as choline release at 0.5 uM using oleoyl-lysophosphatidylcholine as substrate incubated for 18 hrs by non-linear regression analysis
Attribute Measured: Ki (nM)
Numbers only; they are read as nM.

So what's the measured Ki for this one? CCCCCCCCCCCCCCCC(=O)N[C@@H](Cc1ccc(OCc2ncc(C)c(OC)c2C)cc1)[C@@H](O)CP(=O)(O)O
1300
